IC50 values for the compounds below.
SYSTEM NAME: NAD-dependent protein deacetylase sirtuin-1 (Homo sapiens, UniProt Q96EB6)
Sequence (Q96EB6 whole entry): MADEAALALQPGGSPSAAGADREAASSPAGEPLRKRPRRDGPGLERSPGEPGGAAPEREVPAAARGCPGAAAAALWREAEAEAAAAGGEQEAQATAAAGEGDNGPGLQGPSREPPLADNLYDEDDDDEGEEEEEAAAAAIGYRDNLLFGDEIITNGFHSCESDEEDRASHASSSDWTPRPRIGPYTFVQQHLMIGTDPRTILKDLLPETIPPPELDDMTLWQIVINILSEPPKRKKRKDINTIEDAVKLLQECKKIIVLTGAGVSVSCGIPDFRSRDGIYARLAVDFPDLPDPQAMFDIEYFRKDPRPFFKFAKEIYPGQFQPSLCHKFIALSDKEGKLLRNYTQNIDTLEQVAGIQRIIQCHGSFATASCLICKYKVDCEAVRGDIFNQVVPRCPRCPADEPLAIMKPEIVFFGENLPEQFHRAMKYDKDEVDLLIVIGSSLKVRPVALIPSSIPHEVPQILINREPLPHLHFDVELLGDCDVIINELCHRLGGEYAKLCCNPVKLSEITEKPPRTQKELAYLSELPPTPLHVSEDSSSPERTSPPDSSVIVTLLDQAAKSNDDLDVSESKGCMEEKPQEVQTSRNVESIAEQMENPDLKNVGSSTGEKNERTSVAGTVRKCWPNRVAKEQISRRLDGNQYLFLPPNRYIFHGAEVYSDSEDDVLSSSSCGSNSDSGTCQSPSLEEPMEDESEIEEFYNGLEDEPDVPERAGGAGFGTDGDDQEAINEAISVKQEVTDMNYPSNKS
ASSAY: Inhibition of recombinant human C-terminal His6-tagged SIRT1 (Met1 to Ser747 residues) defatty-acylase activity expressed in Escherichia coli using SFP3 as substrate measured at 5 mins interval for 60 mins in presence of NAD+ by fluorescence assay
Non-standard residues stand in square brackets, D forms with d. Residues, ends and D or L forms follow the SMILES beside them. *: point of attachment. Phenylacetyl(4-E-phenylazo) = O=C(Cc1ccc(/N=N/c2ccccc2)cc1)*; Lys(thiomyristoyl) = CCCCCCCCCCCCCC(=S)NCCCC[C@H](N)C(=O)O; X3 = CN(C)c1ccc(/N=N/c2ccc(CCC(=O)*)cc2)cc1; X1 = O=C(Cc1ccc(/N=N/c2ccc(O)cc2)cc1)*
Respond with the bare value in µM.

Incoming: Need IC50, item CC[C@H](C)[C@H](NC(=O)[C@H](CCCNC(=N)N)NC(C)=O)C(=O)N[C@@H](CCCCNC(=O)Cc1ccc(/N=N/c2ccccc2)cc1)C(=O)N[C@@H](CCCNC(=N)N)C(=O)N[C@@H](Cc1ccc(O)cc1)C(N)=O (Ac-RIK(Phenylacetyl(4-E-phenylazo))RY-NH2)
Outgoing: 0.048

Incoming: Need IC50, item CC[C@H](C)[C@H](NC(=O)[C@H](CCCNC(=N)N)NC(C)=O)C(=O)N[C@@H](CCCCNC(=O)CCc1ccc(/N=N/c2ccc(N(C)C)cc2)cc1)C(=O)N[C@@H](CCCNC(=N)N)C(=O)N[C@@H](Cc1ccc(O)cc1)C(N)=O (Ac-RIK(X3)RY-NH2)
Outgoing: 1.7

Incoming: Need IC50, item CC[C@H](C)[C@H](NC(C)=O)C(=O)N[C@@H](CCCCNC(=O)Cc1ccc(/N=N/c2ccccc2)cc1)C(=O)N[C@@H](CCCNC(=N)N)C(N)=O
Outgoing: 0.27

Incoming: Need IC50, item CC[C@H](C)[C@H](NC(=O)[C@H](CCCNC(=N)N)NC(C)=O)C(=O)N[C@@H](CCCCNC(=O)Cc1ccc(/N=N/c2ccc(O)cc2)cc1)C(=O)N[C@@H](CCCNC(=N)N)C(=O)N[C@@H](Cc1ccc(O)cc1)C(N)=O (Ac-RIK(X1)RY-NH2)
Outgoing: 0.12

Incoming: Need IC50, item CCCCCCCCCCCCCC(=S)NCCCC[C@H](NC(=O)[C@@H](NC(=O)[C@H](CCCNC(=N)N)NC(C)=O)[C@@H](C)CC)C(=O)N[C@@H](CCCNC(=N)N)C(=O)N[C@@H](Cc1ccc(O)cc1)C(N)=O (Ac-RI[Lys(thiomyristoyl)]RY-NH2)
Outgoing: 0.33

Incoming: Need IC50, item CC[C@H](C)[C@H](NC(=O)[C@H](CCCCNC(=O)Cc1ccc(/N=N/c2ccccc2)cc1)NC(=O)[C@@H](NC(C)=O)C(C)C)C(=O)N[C@@H](CCCCN)C(=O)N[C@@H](CCCCN)C(N)=O (Ac-VK(Phenylacetyl(4-E-phenylazo))IKK-NH2)
Outgoing: 1.4

---

SYSTEM NAME: NAD-dependent protein deacetylase sirtuin-2 (Homo sapiens, UniProt Q8IXJ6)
Sequence (Q8IXJ6 whole entry): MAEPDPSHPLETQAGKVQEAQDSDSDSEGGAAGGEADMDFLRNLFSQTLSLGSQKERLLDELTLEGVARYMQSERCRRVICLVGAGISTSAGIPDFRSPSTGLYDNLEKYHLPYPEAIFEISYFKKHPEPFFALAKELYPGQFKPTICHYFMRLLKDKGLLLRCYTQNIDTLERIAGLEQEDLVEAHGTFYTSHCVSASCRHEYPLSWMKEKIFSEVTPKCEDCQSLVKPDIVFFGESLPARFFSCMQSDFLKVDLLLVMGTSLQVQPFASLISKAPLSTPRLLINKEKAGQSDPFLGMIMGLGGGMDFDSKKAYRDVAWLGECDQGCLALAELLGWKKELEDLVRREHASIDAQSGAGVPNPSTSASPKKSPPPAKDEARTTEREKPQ
ASSAY: Inhibition of recombinant human SIRT2 defatty-acylase activity using SFP3 as substrate measured at 5 mins interval for 60 mins in presence of NAD+ by fluorescence assay
Structures can show the parent of a compound that is named as a salt. Non-standard residues stand in square brackets, D forms with d. Residues, ends and D or L forms follow the SMILES beside them. *: point of attachment. Phenylacetyl(4-E-phenylazo) = O=C(Cc1ccc(/N=N/c2ccccc2)cc1)*; Lys(thiomyristoyl) = CCCCCCCCCCCCCC(=S)NCCCC[C@H](N)C(=O)O; X5 = CCN(CC)c1ccc(/N=N/c2ccc(CC(=O)*)cc2)cc1; X4 = CN(C)c1ccc(/N=N/c2ccc(CC(=O)*)cc2)cc1; X2 = CN(C)c1ccc(/N=N/c2ccc(C(=O)*)cc2)cc1; Tfa = O=C(C(F)(F)F)*
pIC50 values for the molecules below.
Conceptually, pIC50 converts a concentration in mol/L into minus its log10.

- MOLECULE: "CC[C@H](C)[C@H](NC(=O)[C@H](CCCNC(=N)N)NC(C)=O)C(=O)N[C@@H](CCCCNC(=O)Cc1ccc(/N=N/c2ccc(N(C)C)cc2)cc1)C(=O)N[C@@H](CCCNC(=N)N)C(=O)N[C@@H](Cc1ccc(O)cc1)C(N)=O (Ac-RIK(X4)RY-NH2)"
  pIC50: 7.44
- MOLECULE: "CC[C@H](C)[C@H](NC(=O)[C@H](CCCNC(=N)N)NC(C)=O)C(=O)N[C@@H](CCCCNC(=O)C(F)(F)F)C(=O)N[C@@H](CCCNC(=N)N)C(=O)N[C@@H](Cc1ccc(O)cc1)C(N)=O (Ac-RIK(Tfa)RY-NH2)"
  pIC50: 6.49
- MOLECULE: "CC[C@H](C)[C@H](NC(=O)[C@H](CCCNC(=N)N)NC(C)=O)C(=O)N[C@@H](CCCCNC(=O)Cc1ccc(/N=N/c2ccccc2)cc1)C(=O)N[C@@H](CCCNC(=N)N)C(=O)N[C@@H](Cc1ccc(O)cc1)C(N)=O (Ac-RIK(Phenylacetyl(4-E-phenylazo))RY-NH2)"
  pIC50: 7.72
- MOLECULE: "CC[C@H](C)[C@H](NC(=O)[C@H](CCCNC(=N)N)NC(C)=O)C(=O)N[C@@H](CCCCNC(=O)Cc1ccc(/N=N/c2ccc(N(CC)CC)cc2)cc1)C(=O)N[C@@H](CCCNC(=N)N)C(=O)N[C@@H](Cc1ccc(O)cc1)C(N)=O (Ac-RIK(X5)RY-NH2)"
  pIC50: 7.17
- MOLECULE: "CC[C@H](C)[C@H](NC(=O)[C@@H](NC(=O)[C@H](CCCCNC(=O)Cc1ccc(/N=N/c2ccccc2)cc1)NC(=O)[C@H](CC(=O)O)NC(=O)[C@H](CO)NC(C)=O)[C@@H](C)O)C(N)=O (Ac-SDK(Phenylacetyl(4-E-phenylazo))TI-NH2)"
  pIC50: 5.82
- MOLECULE: "CC[C@H](C)[C@H](NC(=O)[C@H](CCCNC(=N)N)NC(C)=O)C(=O)N[C@@H](CCCCNC(=O)c1ccc(/N=N/c2ccc(N(C)C)cc2)cc1)C(=O)N[C@@H](CCCNC(=N)N)C(=O)N[C@@H](Cc1ccc(O)cc1)C(N)=O (Ac-RIK(X2)RY-NH2)"
  pIC50: 6.37
- MOLECULE: "CCCCCCCCCCCCCC(=S)NCCCC[C@H](NC(=O)[C@@H](NC(=O)[C@H](CCCNC(=N)N)NC(C)=O)[C@@H](C)CC)C(=O)N[C@@H](CCCNC(=N)N)C(=O)N[C@@H](Cc1ccc(O)cc1)C(N)=O (Ac-RI[Lys(thiomyristoyl)]RY-NH2)"
  pIC50: 7.66
- MOLECULE: "CC[C@H](C)[C@H](NC(C)=O)C(=O)N[C@@H](CCCCNC(=O)Cc1ccc(/N=N/c2ccccc2)cc1)C(=O)N[C@@H](CCCNC(=N)N)C(N)=O"
  pIC50: 7.20

Please examine the following record next.
Incoming: Need pIC50, item CC[C@H](C)[C@H](NC(=O)[C@H](CCCCNC(=O)Cc1ccc(/N=N/c2ccccc2)cc1)NC(=O)[C@@H](NC(C)=O)C(C)C)C(=O)N[C@@H](CCCCN)C(=O)N[C@@H](CCCCN)C(N)=O (Ac-VK(Phenylacetyl(4-E-phenylazo))IKK-NH2)
Outgoing: 6.92

Where do the numbers come from? From ChEMBL document CHEMBL4304758.
